# Assay target: Peroxisome proliferator-activated receptor gamma (Homo sapiens) + Nuclear receptor coactivator 3 (Homo sapiens) (UniProt P37231+Q9Y6Q9)
# Sequence (P37231 whole entry, looked up): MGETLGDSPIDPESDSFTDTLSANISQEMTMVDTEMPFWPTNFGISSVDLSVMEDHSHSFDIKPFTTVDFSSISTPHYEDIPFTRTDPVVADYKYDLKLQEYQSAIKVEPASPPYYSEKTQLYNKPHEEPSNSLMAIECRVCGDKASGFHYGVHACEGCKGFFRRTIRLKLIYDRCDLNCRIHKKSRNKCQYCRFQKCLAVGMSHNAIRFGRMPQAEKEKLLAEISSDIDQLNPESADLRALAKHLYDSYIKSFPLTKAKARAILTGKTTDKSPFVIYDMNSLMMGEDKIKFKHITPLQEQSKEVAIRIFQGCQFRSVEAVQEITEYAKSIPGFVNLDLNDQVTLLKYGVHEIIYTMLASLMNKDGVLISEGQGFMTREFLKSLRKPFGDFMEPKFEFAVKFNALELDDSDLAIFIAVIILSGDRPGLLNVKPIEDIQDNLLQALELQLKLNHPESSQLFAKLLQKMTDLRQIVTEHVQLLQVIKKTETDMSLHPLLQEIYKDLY
# Sequence (Q9Y6Q9 whole entry, looked up): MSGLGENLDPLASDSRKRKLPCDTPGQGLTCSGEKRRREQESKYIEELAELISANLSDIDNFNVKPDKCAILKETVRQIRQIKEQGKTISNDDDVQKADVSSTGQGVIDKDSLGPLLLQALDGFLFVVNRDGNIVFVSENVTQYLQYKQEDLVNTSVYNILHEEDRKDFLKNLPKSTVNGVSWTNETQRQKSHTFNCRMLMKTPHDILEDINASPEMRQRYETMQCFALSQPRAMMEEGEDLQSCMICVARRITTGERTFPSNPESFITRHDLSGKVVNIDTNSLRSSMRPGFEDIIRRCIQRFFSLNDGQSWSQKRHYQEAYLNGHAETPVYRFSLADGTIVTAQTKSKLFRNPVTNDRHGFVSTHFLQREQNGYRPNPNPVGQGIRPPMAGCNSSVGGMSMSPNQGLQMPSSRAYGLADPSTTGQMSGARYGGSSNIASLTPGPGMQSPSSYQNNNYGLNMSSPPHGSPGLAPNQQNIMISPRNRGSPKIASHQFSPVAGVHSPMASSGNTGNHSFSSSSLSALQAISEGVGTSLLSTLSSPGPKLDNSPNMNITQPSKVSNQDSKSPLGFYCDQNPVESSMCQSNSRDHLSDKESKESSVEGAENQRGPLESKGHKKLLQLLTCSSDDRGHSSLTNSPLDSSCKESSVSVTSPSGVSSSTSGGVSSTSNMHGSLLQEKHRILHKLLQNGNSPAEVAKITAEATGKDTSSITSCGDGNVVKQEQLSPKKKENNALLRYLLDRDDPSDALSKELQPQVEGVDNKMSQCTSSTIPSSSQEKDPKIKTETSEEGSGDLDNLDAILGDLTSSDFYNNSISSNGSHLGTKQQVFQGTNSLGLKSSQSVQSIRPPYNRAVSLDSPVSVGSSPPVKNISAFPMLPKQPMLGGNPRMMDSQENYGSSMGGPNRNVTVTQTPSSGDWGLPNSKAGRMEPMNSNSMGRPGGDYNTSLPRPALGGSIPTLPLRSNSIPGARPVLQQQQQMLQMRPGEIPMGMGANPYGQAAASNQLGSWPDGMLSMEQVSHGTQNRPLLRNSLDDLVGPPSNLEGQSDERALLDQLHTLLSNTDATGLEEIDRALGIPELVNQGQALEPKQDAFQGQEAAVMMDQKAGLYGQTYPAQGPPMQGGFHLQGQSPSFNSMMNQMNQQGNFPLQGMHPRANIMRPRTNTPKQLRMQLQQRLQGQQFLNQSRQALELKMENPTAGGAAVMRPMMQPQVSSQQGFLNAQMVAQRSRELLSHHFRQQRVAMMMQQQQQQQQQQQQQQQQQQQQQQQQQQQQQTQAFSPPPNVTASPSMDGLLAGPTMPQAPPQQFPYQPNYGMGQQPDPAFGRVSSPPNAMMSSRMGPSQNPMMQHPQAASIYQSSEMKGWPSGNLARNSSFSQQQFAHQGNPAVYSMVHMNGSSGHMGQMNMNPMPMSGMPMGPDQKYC
# Protocol details: PPARgamma-driven SRC-3 coactivator recruitment agonists, confirmation, biochemical (AID 1301);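 also: 0% = vehicle wells and 100% = reference agonist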
# Run parameters: biochemical PPARgamma-SRC-3 coactivator recruitment, agonist mode; at 8 µM; active compounds read high
Some of the results follow.
Answer criterion not met if activation is under 10%, and criterion met if it is 10% or more.

Does the reported activation for Cn1c(-c2sc3cc(C(F)(F)F)cnc3c2-c2ccccc2)n[nH]c1=S fall at or above the 10% mark?
criterion met

Does the reported activation for CCn1c(SCC(=O)Nc2cccc(F)c2)nnc1-c1cc2cc(Br)ccc2o1 fall at or above the 10% mark?
criterion met

Does the reported activation for COc1ccc(/C(O)=C2/C(=O)C(=O)N(c3nc(C)c(C)s3)C2c2ccco2)cc1 (centres undefined) fall at or above the 10% mark?
criterion met

Does the reported activation for COC(=O)c1ccccc1SC1CC(=O)N(c2cccc(C)c2)C1=O (centres undefined) fall at or above the 10% mark?
criterion met

Does the reported activation for Cc1ccc(-c2cc(C(=O)NCc3cn(C)nc3C)c3cc(Br)ccc3n2)cc1 fall at or above the 10% mark?
criterion met

Does the reported activation for CCN(CC)c1ccc2oc(=O)c(C)nc2c1 fall at or above the 10% mark?
criterion not met

Does the reported activation for Cc1ccccc1-c1n[nH]c(=S)n1/N=C/c1ccc(-c2ccccc2Br)o1 fall at or above the 10% mark?
criterion met

Does the reported activation for Cc1cc(N2C(=O)C(=O)/C(=C(/O)c3ccc(Cl)cc3)C2c2cccc(Br)c2)no1 (centres undefined) fall at or above the 10% mark?
criterion met

Does the reported activation for NC(=O)CSc1oc(-c2cccs2)nc1S(=O)(=O)c1ccccc1 fall at or above the 10% mark?
criterion met

Does the reported activation for O=C(CSc1c2c(nc3ccc(Cl)cc13)CCCC2)NCc1ccco1 fall at or above the 10% mark?
criterion met

====

# Assay target: Steroidogenic factor 1 (Homo sapiens) (UniProt Q13285)
# Sequence (Q13285 whole entry, looked up): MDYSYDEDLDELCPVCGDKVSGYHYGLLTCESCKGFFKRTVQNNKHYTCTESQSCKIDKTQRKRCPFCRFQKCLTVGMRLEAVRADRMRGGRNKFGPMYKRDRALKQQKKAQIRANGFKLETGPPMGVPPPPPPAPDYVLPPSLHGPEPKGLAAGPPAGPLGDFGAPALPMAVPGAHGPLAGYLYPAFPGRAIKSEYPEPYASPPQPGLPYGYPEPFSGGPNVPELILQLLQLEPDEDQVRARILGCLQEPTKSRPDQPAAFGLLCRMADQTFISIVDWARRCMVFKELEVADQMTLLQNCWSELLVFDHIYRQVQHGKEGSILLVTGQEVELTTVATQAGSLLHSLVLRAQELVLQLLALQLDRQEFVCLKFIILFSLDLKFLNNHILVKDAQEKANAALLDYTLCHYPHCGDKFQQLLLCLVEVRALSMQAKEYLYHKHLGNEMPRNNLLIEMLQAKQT
# Protocol details: SF1 (NR5A1) inverse agonists, counter-screen for LRH-1 inverse agonist project, cell-based, luminescence, high throughput (AID 651614);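 also: cells cotransfected with StAR promoter reporter and SF1 expression vector; 0% = vehicle on cells with receptor and 100% = vehicle on cells lacking receptor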
# Run parameters: cell-based SF1 luciferase reporter, at 3.6 µM
The source made the active and inactive calls. Cut-off read from the data, not from the text of the source: active = inhibition above about 44%; inactive = the rest.
The categories you may choose from are active, inactive

- Compound: "Cc1cc(S(=O)(=O)NCc2ccncc2)c(C)cc1Br"
  Class: "inactive"
- Compound: "O=C1C(SCCO)=C(SCCO)C(=O)c2ccccc21"
  Class: "active"
- Compound: "CCc1ccc(N2C=C(C(=O)OC)C(c3ccc(OC)cc3)C(C#N)=C2N)cc1 (stereo not drawn)"
  Class: "active"
- Compound: "COc1ccccc1NS(=O)(=O)c1cccc(C(=O)NC2CCN(Cc3ccccc3)CC2)c1"
  Class: "active"
- Compound: "COc1ccc(OCC(=O)N/N=C/c2ccc(O[C@@H]3O[C@H](CO)[C@@H](O)[C@H](O)[C@H]3O)cc2)cc1"
  Class: "active"

Per the assay record, what outcome was assigned to CCN(CC)CC(=O)Nc1ccc(-c2nc3cc(NC(=O)CN(CC)CC)ccc3o2)cc1 ?
inactive

Per the assay record, what outcome was assigned to Cc1c(P(=S)(c2ccccc2)c2ccccc2)[n+]2ccccc2n1C/C=C/c1ccccc1 ?
active

Per the assay record, what outcome was assigned to COc1ccc(-c2coc3c(C(=O)NCc4ccc(OC)c(OC)c4)cccc23)c(C)c1 ?
active

Per the assay record, what outcome was assigned to Cc1ccc(-c2cc(NC=O)c3ncc(-c4cnn(C)c4)n3c2)cc1 ?
active

Per the assay record, what outcome was assigned to C/C=C/c1ccc(OCCOc2ccc(C=O)cc2OC)c(OC)c1 ?
inactive

Per the assay record, what outcome was assigned to Cc1ccccc1NC(=O)c1ccc([N+](=O)[O-])o1 ?
active

Per the assay record, what outcome was assigned to CCN(Cc1ccccc1)c1ccc(/C=N/NS(=O)(=O)c2ccc(C)c([N+](=O)[O-])c2)cc1 ?
active

Per the assay record, what outcome was assigned to COC(=O)c1c(NC(=O)c2ccco2)sc2c1CCN(C(C)=O)C2 ?
active

Per the assay record, what outcome was assigned to Cc1nc2c(-c3ccc(F)cc3)cnn2c(N)c1-c1ccccc1 ?
inactive

Per the assay record, what outcome was assigned to O=[N+]([O-])c1ccc(-n2cnc3ccccc32)c([N+](=O)[O-])c1 ?
active

Per the assay record, what outcome was assigned to CCCCn1c2c(c(=N)c3c1CCC3)CCC2 ?
active

Per the assay record, what outcome was assigned to COc1ccccc1N1CCN(C(=O)C2c3ccccc3Oc3ccccc32)CC1 ?
inactive

Per the assay record, what outcome was assigned to Cc1ccc(C)c(NC(=O)CSc2nnc(-c3ccccc3)n2N)c1 ?
active

====

# Assay target: Nuclear receptor coactivator 2 (Homo sapiens) (UniProt Q15596)
# Sequence (Q15596 whole entry, looked up): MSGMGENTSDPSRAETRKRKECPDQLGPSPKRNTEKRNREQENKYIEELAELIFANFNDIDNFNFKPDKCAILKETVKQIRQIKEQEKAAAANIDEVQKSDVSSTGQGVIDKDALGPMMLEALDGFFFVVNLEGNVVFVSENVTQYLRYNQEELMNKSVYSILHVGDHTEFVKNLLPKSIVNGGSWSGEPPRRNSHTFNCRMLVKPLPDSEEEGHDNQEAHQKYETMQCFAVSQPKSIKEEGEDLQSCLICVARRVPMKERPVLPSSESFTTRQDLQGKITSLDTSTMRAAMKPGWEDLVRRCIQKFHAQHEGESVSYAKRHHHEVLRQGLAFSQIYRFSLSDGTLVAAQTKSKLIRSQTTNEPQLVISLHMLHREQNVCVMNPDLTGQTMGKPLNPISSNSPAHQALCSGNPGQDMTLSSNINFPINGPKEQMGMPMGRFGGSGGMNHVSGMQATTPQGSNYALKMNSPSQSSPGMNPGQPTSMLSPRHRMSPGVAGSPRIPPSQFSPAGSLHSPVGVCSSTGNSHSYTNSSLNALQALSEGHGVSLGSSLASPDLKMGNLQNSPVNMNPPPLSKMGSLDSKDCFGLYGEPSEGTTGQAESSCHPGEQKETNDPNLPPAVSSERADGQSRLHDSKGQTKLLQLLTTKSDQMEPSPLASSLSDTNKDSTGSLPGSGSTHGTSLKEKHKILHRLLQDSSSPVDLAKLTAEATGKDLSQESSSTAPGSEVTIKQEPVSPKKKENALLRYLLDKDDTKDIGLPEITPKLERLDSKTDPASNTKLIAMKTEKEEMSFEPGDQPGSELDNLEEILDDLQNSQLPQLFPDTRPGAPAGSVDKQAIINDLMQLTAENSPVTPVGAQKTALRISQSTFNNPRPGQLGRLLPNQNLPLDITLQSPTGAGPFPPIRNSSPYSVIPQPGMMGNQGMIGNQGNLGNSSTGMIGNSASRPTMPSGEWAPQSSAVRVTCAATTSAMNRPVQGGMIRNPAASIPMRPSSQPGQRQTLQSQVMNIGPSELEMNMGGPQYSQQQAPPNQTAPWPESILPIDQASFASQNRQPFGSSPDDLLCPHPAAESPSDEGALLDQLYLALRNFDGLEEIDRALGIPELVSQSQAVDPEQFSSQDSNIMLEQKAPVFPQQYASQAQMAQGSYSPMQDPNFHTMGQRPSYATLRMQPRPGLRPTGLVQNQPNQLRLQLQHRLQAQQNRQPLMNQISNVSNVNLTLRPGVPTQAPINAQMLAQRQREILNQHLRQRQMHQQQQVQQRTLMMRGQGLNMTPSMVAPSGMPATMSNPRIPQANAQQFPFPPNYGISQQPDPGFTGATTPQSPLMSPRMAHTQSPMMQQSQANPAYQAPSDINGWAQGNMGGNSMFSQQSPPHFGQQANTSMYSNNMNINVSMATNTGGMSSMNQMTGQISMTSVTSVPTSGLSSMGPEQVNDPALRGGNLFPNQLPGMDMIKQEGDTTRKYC
# Protocol details: SRC2 coactivator transcriptional activity inhibitors, confirmation, cell-based, luminescence, HEK293, triplicate (AID 652008);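 also: 0% = DMSO-treated cells and 100% = Gossypol at 36 µM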
# Run parameters: HEK293 GAL4-SRC2 luciferase reporter, at 8.9 µM
Calls of active or inactive are those of the source.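 Rule for the calls: active = mean inhibition above 46.5%, the solvent-only control mean plus 3 SD; inactive = the rest.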
The categories you may choose from are class 1 = active, class 0 = inactive

These recorded examples may help you get a feel for the data.
- Smiles code: "C[C@@H]1C(c2ccc(F)cc2)=NN(c2ccccc2)[C@H]1C(=O)N1CCOC1=O"
  Class: "class 0"
- Smiles code: "Cc1cc(C)cc(NC(=O)Nc2cc(S(=O)(=O)N(C)C)ccc2C)c1"
  Class: "class 0"
- Smiles code: "CC(C)(C)OC(=O)NCCCCCc1cn([C@@H](CO)C(=O)NCCCCCCCCCCC(=O)N2CCN(C(=O)OC(C)(C)C)CC2)nn1"
  Class: "class 1"
- Smiles code: "Brc1ccc2ncnc(NCc3cccnc3)c2c1"
  Class: "class 0"

Proceed to the following item.
Per the assay record, what outcome was assigned to Cc1ccc(NC(=O)C2CCN(S(=O)(=O)c3c(C)noc3/C=C/c3ccco3)CC2)nc1 ?
class 0

====

inhibition values, listed per item
# Tested on: transactivating tegument protein VP16 (Human herpesvirus 1)
# Protocol details: VP16 transactivation reporter inhibitors, counter-screen for SRC2 inhibitor project, cell-based, luminescence, single concentration (AID 652007)
# Run parameters: cell-based VP16 transactivation luciferase reporter, at 8.9 µM, active compounds read high
Write the number in % without appending the unit.

Example results:
- Molecule: "COc1cc(OC)nc(Nc2nc(C(N)Cc3ccc(F)cc3)cs2)n1 (configuration not stated)"
  Units: "%"
  inhibition: -4.22
- Molecule: "N#CC(=C1C=CC(=NO)C(Cl)=C1)c1ccccc1"
  Units: "%"
  inhibition: -5.64
- Molecule: "COC(=O)c1cnn(-c2ccc(Cl)cc2)c1/C=N/NC(N)=S"
  Units: "%"
  inhibition: 22
- Molecule: "Cc1cc(C)n(CCC(=O)N/N=C/c2c(O)ccc3ccccc23)n1"
  Units: "%"
  inhibition: 5.98
- Molecule: "Cc1ncc(CO)c(/C=N/Nc2ccc(C(F)(F)F)cn2)c1O"
  Units: "%"
  inhibition: 8.88

Find the recorded inhibition belonging to CC(=O)OC1CCC2(C)C(CCC3C4CC=C(C(C)=O)C4(C)OC(=O)CC32)C1 (configuration not stated) and report it.
20.8

Find the recorded inhibition belonging to Cc1cccc(Nc2nc(NCc3ccco3)c3ccccc3n2)c1 and report it.
25.1

Find the recorded inhibition belonging to CCc1ccc(-c2nc(CS(=O)CC(=O)NCc3ccccc3)c(C)o2)cc1 (configuration not stated) and report it.
-8.7

Find the recorded inhibition belonging to O=C(OC12CCCN(C1)/C(=C/c1ccncc1)C2)c1ccc(Cl)cc1 (configuration not stated) and report it.
-7.98

====

# Assay target: Nuclear receptor coactivator 2 (Homo sapiens)
# Protocol details: SRC2 coactivator transcriptional activity inhibitors, confirmation, cell-based, luminescence, HEK293, triplicate (AID 652008);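 also: 0% = DMSO-treated cells and 100% = Gossypol at 36 µM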
# Run parameters: HEK293 GAL4-SRC2 luciferase reporter, at 8.9 µM
The source made the active and inactive calls.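 The calls were made as follows: active = mean inhibition above 46.5%, the solvent-only control mean plus 3 SD; inactive = the rest.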
The categories you may choose from are class 1 (active), class 0 (inactive)

- Compound: "O=C(NCCc1ccccc1F)c1ccc2c(c1)OCCO2"
  Assay target: "Nuclear receptor coactivator 2 (Homo sapiens)"
  Class: "class 1"
- Compound: "Cc1ncc(CO)c(/C=N/Nc2ccc(C(F)(F)F)cn2)c1O"
  Assay target: "Nuclear receptor coactivator 2 (Homo sapiens)"
  Class: "class 0"
- Compound: "Cc1cc(C)c2sc(NNC(=O)c3ccc(S(=O)(=O)N4CCc5ccccc5C4)cc3)nc2c1"
  Assay target: "Nuclear receptor coactivator 2 (Homo sapiens)"
  Class: "class 0"
- Compound: "CN(C)c1ccc(/C=C/c2nc3ccccc3s2)cc1"
  Assay target: "Nuclear receptor coactivator 2 (Homo sapiens)"
  Class: "class 1"
- Compound: "CN(C)c1ccc(C(C[N+](=O)[O-])c2c(N)n(C)c(=O)n(C)c2=O)c(F)c1C#N (configuration not stated)"
  Assay target: "Nuclear receptor coactivator 2 (Homo sapiens)"
  Class: "class 0"
- Compound: "CN=c1scc(-c2cccs2)n1/N=C/c1ccccc1O"
  Assay target: "Nuclear receptor coactivator 2 (Homo sapiens)"
  Class: "class 1"
- Compound: "Cc1ccc2cccc(NS(=O)(=O)c3ccccc3)c2n1"
  Assay target: "Nuclear receptor coactivator 2 (Homo sapiens)"
  Class: "class 0"
- Compound: "COc1cc(/C=C/C(=O)c2ccc3c(c2)OCCO3)cc(OC)c1OC"
  Assay target: "Nuclear receptor coactivator 2 (Homo sapiens)"
  Class: "class 0"

Per the assay record, what outcome was assigned to Cc1cc(N/N=C/c2ccc(O)cc2)nc(NS(=O)(=O)c2ccccc2)n1 ?
class 0

Per the assay record, what outcome was assigned to Cc1ccc(NC(=O)Cn2cccc2C2=NC(c3ccccc3)CO2)cc1C (configuration not stated) ?
class 0

Per the assay record, what outcome was assigned to Cc1ccc(C2CC(c3cccs3)=NN2C(=O)CCl)cc1 (configuration not stated) ?
class 0
